Data provenance: patent US20100291106A1

Recorded kon for the following binders
# experimental-system: T1, cynomolgus complement C3b protein (cynomolgus monkey (Macaca fascicularis))
# T1 construct: also called cyno C3b; cynoC3b
# test-protocol: SPR (Biacore T100), C3b captured by anti-C3d antibody, IgG as analyte, 1:1 model

| binder | unit-descriptor | kon |
| --- | --- | --- |
| MOR09609 IgG (antibody, V domains shown, Germlined human IgG1 with leucines 234 and 235 changed to alanines, kappa; also called antibody 9609) VH: EVQLVQSGAEVKKPGSSVKVSCKASGGTFSSYTFSWVRQAPGQGLEWMGNILPIFGDANYAQKFQGRVTITADESTSTAYMELSSLRSEDTAVYYCARNKGAFYYMSTYPSLDVWGQGTLVTVSS VL: DIQMTQSPSSLSASVGDRVTITCRASQNINYYLNWYQQKPGKAPKLLIYDAFSLQSGVPSRFSGSGSGTDFTLTISSLQPEDFATYYCQQSWSVPPFTFGQGTKVEIKR | M⁻¹ s⁻¹ | 2.02e+06 |
| MOR09610 IgG (antibody, V domains shown, Germlined human IgG1 with leucines 234 and 235 changed to alanines, kappa; also called antibody 9610) VH: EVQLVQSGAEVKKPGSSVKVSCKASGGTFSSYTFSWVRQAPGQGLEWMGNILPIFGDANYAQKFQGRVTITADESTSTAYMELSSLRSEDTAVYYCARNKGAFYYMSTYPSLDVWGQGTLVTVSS VL: DIQMTQSPSSLSASVGDRVTITCRASQNINYYLNWYQQKPGKAPKLLIYDAFSLQSGVPSRFSGSGSGTDFTLTISSLQPEDFATYYCQQSIAVPPFTFGQGTKVEIKR | M⁻¹ s⁻¹ | 1.91e+06 |
| MOR09556 IgG (antibody, V domains shown, Germlined human IgG1 with leucines 234 and 235 changed to alanines, kappa; also called antibody 9556) VH: EVQLVESGGGLVQPGGSLRLSCAASGFTFSSYWMTWVRQAPGKGLEWVSSIKIKPDGYAASVKGRFTISRDNSKNTLYLQMNSLRAEDTAVYYCARLFYQYFARMDYWGQGTLVTVSS VL: DIQMTQSPSSLSASVGDRVTITCRASQDISNYLNWYQQKPGKAPKLLIYAASNLQSGVPSRFSGSGSGTDFTLTISSLQPEDFATYYCQQYDSYSPTFGQGTKVEIKR | M⁻¹ s⁻¹ | 4.57e+06 |
